Test system: Lewis lung carcinoma (LLC) tumour
Measurement notes: Biodistribution in LLC tumour model in vivo
Design: species or system C57BL/6 mice
Experimental context: 60 min post injection
Measurement name: Tumour/Blood, mean
Give bare numbers.

{"Compound": "NC(=O)[C@H](CCCCNC(=O)CON=Cc1ccc([18F])cc1)NC(=O)CCOCCOCCOCCOCCOCCOCCOCCOCCOCCOCCOCCNC(=O)CCOCCOCCOCCOCCOCCOCCOCCOCCOCCOCCOCCNC(=O)CCN(C1(C(=O)NO)CCCC1)S(=O)(=O)c1ccc(Oc2ccc(F)cc2)cc1 [Compound 48B]", "Tumour/Blood, mean": 0.51}

Would you kindly look at the next entry?
Exercise: Which measured Tumour/Blood, mean value corresponds to NC(=O)[C@H](Cc1ccc(O)c([123I])c1)NC(=O)CCOCCOCCOCCOCCOCCOCCOCCOCCOCCOCCOCCNC(=O)CCOCCOCCOCCOCCOCCOCCOCCOCCOCCOCCOCCNC(=O)CCN(C1(C(=O)NO)CCCC1)S(=O)(=O)c1ccc(Oc2ccc(F)cc2)cc1 [Compound 32A] ?
Solution: 0.43
